biological target: pooled human IgG (human IgG1, 2, 3 and 4) (human); assay: cell-based or functional assay; also: test concentration or dose not given here
VALUE KIND: Enzyme Activity Endpoint Assay: Fab′2 (ng/µL)
Expressed in ng/µL, but write only the number.

// lookup Enzyme Activity Endpoint Assay: Fab′2 for PRT-379 (enzyme) MVTSVWTKGVTPPTNFTYGEDVLHAPYVANQGWYDITKTFNGKDDLLCGAATAGNMLHWWFDQNKEQIENYLKKHPEKQKINFNGEQMFDVKEAIDTKDSQLDSKLFEYFKEKAFPYLSTKHLGVFPDHVIDMFINGYRLSLLNHGPTPVKRGSKDPRGGIFDAVFTRGDQSKLLTNRHDFKEKTLKEISDLIKQELTEGKALGISHTYANVRINHVINLWGADFDAEGNLEAIYVTDSDSNASIGMKKYFVGVNSNGKVAISAKEIEEDNIGAQVLGLFTLSTGQDIWNQTN
599
